Data credit: ChEMBL document CHEMBL1149712

- Target or system: Substance-P receptor (Homo sapiens, UniProt P25103)
- Sequence (P25103 whole entry): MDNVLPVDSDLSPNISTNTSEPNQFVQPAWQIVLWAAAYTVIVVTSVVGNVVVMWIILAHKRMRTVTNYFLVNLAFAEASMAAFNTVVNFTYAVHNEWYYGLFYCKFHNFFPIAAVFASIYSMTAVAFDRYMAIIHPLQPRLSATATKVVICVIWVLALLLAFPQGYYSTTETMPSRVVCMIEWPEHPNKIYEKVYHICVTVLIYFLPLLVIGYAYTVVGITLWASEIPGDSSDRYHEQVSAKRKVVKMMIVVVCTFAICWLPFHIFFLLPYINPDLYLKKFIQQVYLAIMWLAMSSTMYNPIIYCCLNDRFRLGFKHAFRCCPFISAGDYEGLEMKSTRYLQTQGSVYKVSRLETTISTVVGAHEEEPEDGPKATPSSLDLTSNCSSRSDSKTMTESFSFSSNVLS
- Protocol description: Displacement of [125I]SP from human NK1 receptor expressed in CHO cells
- Type: cell-based
In this section we review reported IC50 values for a set of compounds.
Response body: numeric value in nM, unit text excluded.

[[record]]
smiles_entry = "CN(Cc1cc(C(F)(F)F)cc(C(F)(F)F)c1)C(=O)[C@H]1CN(C(=O)OC(C)(C)C)C[C@@H]1c1ccccc1"
reported_measurement = 11


Query IC50 for "CN(Cc1cc(C(F)(F)F)cc(C(F)(F)F)c1)C(=O)[C@H]1CN(C(=O)c2cnccn2)C[C@@H]1c1ccccc1"
0.74

Note IC50 for the compound shown: "CN(Cc1cc(C(F)(F)F)cc(C(F)(F)F)c1)C(=O)[C@H]1CN(C(=O)C2CCNCC2)C[C@@H]1c1ccccc1"
4.1

Please supply the value of reported IC50 for the item "CC(=O)N1CCC(C(=O)N2C[C@H](C(=O)N(C)Cc3cc(C(F)(F)F)cc(C(F)(F)F)c3)[C@H](c3ccccc3)C2)CC1"
3.7

For the compound "CN(Cc1cc(C(F)(F)F)cc(C(F)(F)F)c1)C(=O)[C@H]1CN(C(=O)c2cncnc2)C[C@@H]1c1ccccc1" , report IC50.
24

Please give the documented IC50 of "CN(Cc1cc(C(F)(F)F)cc(C(F)(F)F)c1)C(=O)[C@H]1CN(C(=O)c2ncccn2)C[C@@H]1c1ccccc1"
0.84

* * *

- Target or system: Cytochrome P450 2D6 (Homo sapiens, UniProt P10635)
- Sequence (P10635 whole entry): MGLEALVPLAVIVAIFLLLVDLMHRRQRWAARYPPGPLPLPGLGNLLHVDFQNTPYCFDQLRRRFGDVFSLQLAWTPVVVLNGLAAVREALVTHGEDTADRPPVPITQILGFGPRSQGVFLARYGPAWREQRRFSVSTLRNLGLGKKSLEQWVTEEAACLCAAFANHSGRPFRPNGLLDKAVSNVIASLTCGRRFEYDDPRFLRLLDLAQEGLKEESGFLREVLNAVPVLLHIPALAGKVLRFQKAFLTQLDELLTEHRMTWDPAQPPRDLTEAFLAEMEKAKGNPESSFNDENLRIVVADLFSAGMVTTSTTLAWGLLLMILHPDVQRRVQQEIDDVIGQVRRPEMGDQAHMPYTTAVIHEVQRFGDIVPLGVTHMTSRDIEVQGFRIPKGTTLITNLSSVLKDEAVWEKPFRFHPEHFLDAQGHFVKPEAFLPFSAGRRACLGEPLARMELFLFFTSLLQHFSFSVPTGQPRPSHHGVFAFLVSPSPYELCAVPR
- Protocol description: Inhibition of human CYP2D6
- Type: ADME
Readout label: pIC50
pIC50 here: minus log base 10 of the concentration, concentration in moles per litre.

Return reported pIC50. Input molecule: "CC(=O)N1CCC(C(=O)N2C[C@H](C(=O)N(C)Cc3cc(C(F)(F)F)cc(C(F)(F)F)c3)[C@@H](c3ccc(F)cc3C)C2)CC1"
4.04

* * *

- Target or system: Cytochrome P450 2C9 (Homo sapiens)
- Sequence (P11712 whole entry): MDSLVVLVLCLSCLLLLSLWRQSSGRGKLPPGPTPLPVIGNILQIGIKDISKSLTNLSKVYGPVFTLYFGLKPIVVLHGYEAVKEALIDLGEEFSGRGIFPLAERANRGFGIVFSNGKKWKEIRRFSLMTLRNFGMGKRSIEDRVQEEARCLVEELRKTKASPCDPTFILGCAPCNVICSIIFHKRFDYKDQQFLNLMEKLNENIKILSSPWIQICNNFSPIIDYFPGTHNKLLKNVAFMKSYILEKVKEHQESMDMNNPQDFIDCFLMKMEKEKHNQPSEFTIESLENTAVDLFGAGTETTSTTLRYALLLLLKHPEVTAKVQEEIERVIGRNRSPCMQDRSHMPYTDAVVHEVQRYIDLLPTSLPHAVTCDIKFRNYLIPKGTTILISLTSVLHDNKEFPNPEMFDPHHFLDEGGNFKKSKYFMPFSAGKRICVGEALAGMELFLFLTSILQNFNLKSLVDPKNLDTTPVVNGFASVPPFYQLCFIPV
Readout label: IC50 (µM)
Just the number in µM, nothing appended.

Report its IC50 with Cytochrome P450 2C9 (Homo sapiens) as the test system: "Cc1cnc(C(=O)N2C[C@H](C(=O)N(C)Cc3cc(C(F)(F)F)cc(C(F)(F)F)c3)[C@@H](c3ccc(F)cc3C)C2)cn1"
43

* * *

- Target or system: Substance-P receptor (Homo sapiens)
- Protocol description: Displacement of [125I]SP from human NK1 receptor expressed in CHO cells in presence of 50% human serum
- Type: cell-based
pIC50: −log10 of the molar value.
Label TRUE when pIC50 is at or above 8; otherwise label FALSE.

[[record]]
molecule = "CC(=O)N1CCC(C(=O)N2C[C@@H](c3nc(C(C)(C)c4cc(C(F)(F)F)cc(C(F)(F)F)c4)no3)[C@H](c3ccc(F)cc3C)C2)CC1"
cat = "FALSE"

[[record]]
molecule = "CC(=O)N1CCC(C(=O)N2C[C@H](C(=O)N(C)Cc3cc(C(F)(F)F)cc(C(F)(F)F)c3)[C@@H](c3ccc(F)cc3C)C2)CC1"
cat = "TRUE"

[[record]]
molecule = "CC(=O)N1CCC(C(=O)N2C[C@@H](c3noc(C(C)(C)c4cc(C(F)(F)F)cc(C(F)(F)F)c4)n3)[C@H](c3ccc(F)cc3C)C2)CC1"
cat = "TRUE"


Now for another entry.
Check if pIC50 >= 8 (inclusive). Item: CC(=O)N1CCC(C(=O)N2C[C@H](C(=O)N(C)Cc3cc(C(F)(F)F)cc(C(F)(F)F)c3)[C@@H](c3ccccc3)C2)CC1 (stereo in doubt; 8c)
TRUE

* * *

- Target or system: Substance-P receptor (Homo sapiens, UniProt P25103)
- Protocol description: Displacement of [125I]SP from human NK1 receptor expressed in CHO cells
- Type: cell-based
Readout label: pIC50
Scale: negative log10 of molar concentration, which is what pIC50 denotes.

[[record]]
compound = "CC(=O)N1CCC(C(=O)N2C[C@@H](C(=O)N(C)Cc3cc(C(F)(F)F)cc(C(F)(F)F)c3)[C@H](c3ccccc3)C2)CC1"
reported_measurement = 9.01

[[record]]
compound = "Cc1cnc(C(=O)N2C[C@H](C(=O)N(C)Cc3cc(C(F)(F)F)cc(C(F)(F)F)c3)[C@@H](c3ccc(F)cc3C)C2)cn1"
reported_measurement = 10.05

[[record]]
compound = "CC(C)(C)OC(=O)N1CC[C@H](c2ccccc2)[C@@H](C(=O)NCc2cc(C(F)(F)F)cc(C(F)(F)F)c2)C1"
reported_measurement = 6.35

[[record]]
compound = "CN(Cc1cc(C(F)(F)F)cc(C(F)(F)F)c1)C(=O)[C@H]1CN(CC2CCCCC2)C[C@@H]1c1ccccc1"
reported_measurement = 7.21


Identify measured pIC50 associated with "CC(C)(C)OC(=O)N1C[C@H](C(=O)NCc2cc(C(F)(F)F)cc(C(F)(F)F)c2)[C@@H](c2ccccc2)C1"
6.85

Identify measured pIC50 associated with "CN(Cc1cc(C(F)(F)F)cc(C(F)(F)F)c1)C(=O)[C@H]1CN(C(=O)c2ccncn2)C[C@@H]1c1ccccc1"
8.47

Using the record for "CC(=O)N1CCC(C(=O)N2C[C@H](C(=O)N(C)C(C)(C)c3cc(C(F)(F)F)cc(C(F)(F)F)c3)[C@@H](c3ccc(F)cc3C)C2)CC1" , state its measured pIC50.
10.30

Give the reported value of pIC50 for this record: "CC(=O)N1CCC(C(=O)N2C[C@H](c3nc(C(C)(C)c4cc(C(F)(F)F)cc(C(F)(F)F)c4)no3)[C@@H](c3ccc(F)cc3C)C2)CC1"
10.15

Return the recorded pIC50 value; entry: "Cc1cnc(C(=O)N2C[C@H](C(=O)N(C)Cc3cc(C(F)(F)F)cc(C(F)(F)F)c3)[C@@H](c3ccccc3)C2)cn1"
9.24

Please give measured pIC50 of the following entry: CC(=O)N1CCC(C(=O)N2C[C@H](C(=O)N(C)Cc3cc(C(F)(F)F)cc(C(F)(F)F)c3)[C@@H](c3ccccc3)C2)CC1 (stereo in doubt; 27)
9.92

In one line, give reported pIC50 of the entry "CN(Cc1cc(C(F)(F)F)cc(C(F)(F)F)c1)C(=O)[C@H]1CN(C(=O)C2CCCCC2)C[C@@H]1c1ccccc1" .
9.17

Query pIC50 for CC(=O)N1CCC(C(=O)N2C[C@H](C(=O)N(C)Cc3cc(C(F)(F)F)cc(C(F)(F)F)c3)[C@@H](c3ccccc3)C2)CC1 (stereo in doubt; 8c)
9.38

Output measured pIC50 for this item: "CN(Cc1cc(C(F)(F)F)cc(C(F)(F)F)c1)C(=O)[C@H]1CN(C(=O)NC2CCCCC2)C[C@@H]1c1ccccc1"
9.10

Quickly give me recorded pIC50 for "CC(=O)N1CCC(C(=O)N2C[C@@H](c3noc(C(C)(C)c4cc(C(F)(F)F)cc(C(F)(F)F)c4)n3)[C@H](c3ccc(F)cc3C)C2)CC1"
10.52

* * *

- Target or system: Substance-P receptor (Homo sapiens, UniProt P25103)
- Protocol description: Displacement of [125I]SP from human NK1 receptor expressed in CHO cells
- Type: cell-based
Reported pIC50 values for a set of molecules
Just the number, please; pIC50 means minus log10 of the concentration in mol/L.

[[record]]
smiles_entry = "CN(Cc1cc(C(F)(F)F)cc(C(F)(F)F)c1)C(=O)[C@H]1CN(C(=O)N2CCCCC2)C[C@@H]1c1ccccc1"
readout_label = "pIC50"
reported_measurement = 7.89

[[record]]
smiles_entry = "CC(=O)N1CCC(C(=O)N2C[C@H](C(=O)N(C)Cc3cc(C(F)(F)F)cc(C(F)(F)F)c3)[C@@H](c3ccc(F)cc3C)C2)CC1"
readout_label = "pIC50"
reported_measurement = 10.30

[[record]]
smiles_entry = "CC(=O)N1CCC(C(=O)N2C[C@H](c3noc(C(C)(C)c4cc(C(F)(F)F)cc(C(F)(F)F)c4)n3)[C@@H](c3ccc(F)cc3C)C2)CC1"
readout_label = "pIC50"
reported_measurement = 10.15


// moving on: another record for pIC50
Complete the entry with pIC50 for "CC(=O)N1CCC(C(=O)N2C[C@@H](c3nc(C(C)(C)c4cc(C(F)(F)F)cc(C(F)(F)F)c4)no3)[C@H](c3ccc(F)cc3C)C2)CC1"
9.77

* * *

- Target or system: UniProt:P25103
- Protocol description: Displacement of [125I]SP from human NK1 receptor expressed in CHO cells in presence of 50% human serum
- Assay type: cell-based
Measured IC50 by item
Expressed in nM, but write only the number.

Example entries begin here.
[[record]]
smiles_entry = "CC(=O)N1CCC(C(=O)N2C[C@H](c3nc(C(C)(C)c4cc(C(F)(F)F)cc(C(F)(F)F)c4)no3)[C@@H](c3ccc(F)cc3C)C2)CC1"
readout_label = "IC50"
display_unit = "nM"
reported_measurement = 2.8

[[record]]
smiles_entry = "CC(=O)N1CCC(C(=O)N2C[C@H](C(=O)N(C)C(C)(C)c3cc(C(F)(F)F)cc(C(F)(F)F)c3)[C@@H](c3ccc(F)cc3C)C2)CC1"
readout_label = "IC50"
display_unit = "nM"
reported_measurement = 0.51


Below: the item to evaluate.
Specify IC50 for "Cc1cnc(C(=O)N2C[C@H](C(=O)N(C)Cc3cc(C(F)(F)F)cc(C(F)(F)F)c3)[C@@H](c3ccc(F)cc3C)C2)cn1" and stop.
8
